- Tested on: HOP-62
- assay-remarks: Growth inhibition of human HOP62 cells
- Assay type: functional
- experimental-parameters: read-out: LC50 (the source's name)
reported-endpoint: CC50

Example entries and their recorded answers appear below.
| chem-smiles | CC50 |
| --- | --- |
| CC(C)C[C@H](NC(=O)CCn1ccc2ccc(Br)cc2c1=O)B(O)O | > 100 µM |
| CC(C)C[C@H](NC(=O)CCn1ccc2ccccc2c1=O)B(O)O | 96.4 µM |
| CC(C)C[C@H](NC(=O)Cn1ccc2ccc(Br)cc2c1=O)B(O)O | > 100 µM |

Please look at the following compound next.
Which CC50 is reported for this compound? CC(C)C[C@H](NC(=O)CCn1ccc2ncccc2c1=O)B(O)O
> 100 µM
